test system: Erythrocyte; test: Hemolytic activity in BALB/C mouse erythrocytes incubated for 1 hr by absorbance method; format: ADME, cell-based
Where a SMILES comes first, the peptide text is derived from it. Bridges are numbered along the chain shown (N, C = ends). [ ]: non-standard residue; d: D form. The star is where a group is joined. X1 = CC[C@H](C)CCCCC(=O)*; Dab = NCC[C@H](N)C(=O)O
QUANTITY NAME: MHC10

>>> observed_result("CC[C@H](C)CCCCC(=O)N[C@@H](CCN)C(=O)N[C@H](C(=O)N[C@@H](CCN)C(=O)N[C@H]1CCNC(=O)[C@H]([C@@H](C)O)NC(=O)[C@H](CCN)NC(=O)[C@H](CCN)NC(=O)[C@H](CC(C)C)NC(=O)[C@@H](Cc2ccccc2)NC(=O)[C@H](CCN)NC1=O)[C@@H](C)O (X1-[Dab]T[Dab][Dab][Dab][dF]L[Dab][Dab]T; lactam 4-C)")
">= 512 uM"
>>> observed_result("CC[C@H](C)[C@H](NC(=O)CN)C(=O)N[C@@H](CCCNC(=N)N)C(=O)N[C@@H](Cc1c[nH]c2ccccc12)C(=O)N[C@@H](CCCCN)C(=O)N[C@@H](Cc1ccccc1)C(=O)N[C@@H](Cc1c[nH]c2ccccc12)C(=O)N[C@@H](CCCCN)C(=O)N[C@@H](Cc1ccccc1)C(=O)N[C@H](C(N)=O)[C@@H](C)O (H-GIRWKFWKFT-NH2)")
">= 512 uM"
>>> observed_result("CC(C)C[C@H](NC(=O)[C@H](CC(C)C)NC(=O)[C@@H](NC(=O)[C@H](CCCCN)NC(=O)[C@H](Cc1ccccc1)NC(=O)[C@H](CCCNC(=N)N)NC(=O)[C@H](CCCCN)NC(=O)[C@H](CC(C)C)NC(=O)[C@H](CC(C)C)NC(=O)CN)[C@@H](C)O)C(N)=O (H-GLLKRFKTLL-NH2)")
">= 512 uM"
